Tested on: MCF7
PROCEDURE_DETAILS: HRG-induced Akt activation (dPAkt = log2 pAkt/Akt HRG-stimulated minus log2 pAkt/Akt basal) (log2 ratio difference); higher = stronger HRG-induced Akt(T308) phosphorylation
EXPERIMENTAL_CONDITIONS: miRNA mimic concentration 10 nM; time after transfection 72 h; heregulin 10 ng/ml; stimulation time 1 h
QUANTITY_KIND: HRG-induced Akt activation (log2)
Give bare numbers.

# SEQUENCE_ENTRY, NUMBER
data = [
    ("CAGGCCAUAUUGUGCUGCCUCA", 1.88),
    ("UCUUGGAGUAGGUCAUUGGGUGG", 1.56),
    ("AAAAGUAAUUGCGGAUUUUGCC", 0.977),
    ("CGGCCCGGGCUGCUGCUGUUCCU", 1.09),
    ("UUGGGGAAACGGCCGCUGAGUG", 2.08),
]

Provide reported HRG-induced Akt activation (log2) for each item, in the same order as listed.
1. CCAGUAUUAACUGUGCUGCUGA
2. UAAGUGCUUCCAUGUUUUAGUAG

Result:
1: 1.55; 2: 1.08

Please report HRG-induced Akt activation (log2) for every entry that follows.
1. CGAAAACAGCAAUUACCUUUGC
2. UGGGAACGGGUUCCGGCAGACGCUG
3. GGGUGGGGAUUUGUUGCAUUAC
4. AGGGAGGGACGGGGGCUGUGC
5. UAGCACCAUCUGAAAUCGGUUA
6. UAGCAGCACAUAAUGGUUUGUG
7. UGGUUGACCAUAGAACAUGCGC
8. UUCACAGUGGCUAAGUUCCGC

Result:
1.36
1.22
1.16
1.89
1.24
1.98
1.2
1.73

// data source = the supplement of paper PMC4314810
